Target: T1, human CCR7 wild-type fused to YPet (hCCR7-YPet) (human, UniProt P32248 25-378)
T1 construct: chemokine receptor CCR7, human (hCCR7); also called CCR7 WT; wild-type CCR7; source: HeLa, transiently transfected (pcDNA3 hCCR7-YPet), on cells; not shown: YPet, C-terminal, kept
T1 sequence (looked up): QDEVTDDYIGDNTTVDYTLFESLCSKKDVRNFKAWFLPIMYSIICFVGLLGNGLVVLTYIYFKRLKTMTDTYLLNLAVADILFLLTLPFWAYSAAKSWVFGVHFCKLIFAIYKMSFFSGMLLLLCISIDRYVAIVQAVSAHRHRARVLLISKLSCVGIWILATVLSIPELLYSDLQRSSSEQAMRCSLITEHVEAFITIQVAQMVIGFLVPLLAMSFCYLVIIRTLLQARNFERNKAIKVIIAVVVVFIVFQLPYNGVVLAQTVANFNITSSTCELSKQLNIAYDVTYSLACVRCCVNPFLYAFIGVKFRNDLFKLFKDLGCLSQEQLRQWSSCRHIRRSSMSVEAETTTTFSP
Test: flow cytometry on cells; competition: HeLa cells transiently expressing YPet-tagged CCR7 variants, 37 °C, 30 min, 25 nM CCL19-S6^649P1 with graded concentrations of native unlabelled hCCL19; MFI (binding and uptake)
Conditions: one partner purified
property_label: Kd

Memo: native human CCL19 (hCCL19), unlabelled (ligand, UniProt Q99731 22-98, looked up) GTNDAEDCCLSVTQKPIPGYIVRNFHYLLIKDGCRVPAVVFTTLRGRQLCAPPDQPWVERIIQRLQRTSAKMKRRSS , reported Kd: ~29 nM
